# Test system: RAW264.7
# assay_remarks: Inhibition of LPS-induced nitric oxide production in mouse RAW264.7 cells at 80 uM after 24 hrs by Griess assay relative to control
# Format: functional
# experimental_setup: RAW264.7, 24 h
For each record, write down the corresponding inhibition at 80 µM.

Ask: // fetch inhibition at 80 µM given entry "C[C@H]1OC(=O)[C@@]23[C@@H]4[C@H]5OC(=O)[C@]4(C)C[C@@H]4[C@]2(C)[C@H](C=C2C(=CC(=O)OC2(C)C)[C@@]42CO2)O[C@@]13O5"
Result: < 50%

Ask: // fetch inhibition at 80 µM given entry "C=C1[C@@]2(C)C[C@@H]3[C@](C)(CC=C4C(C)(C)OC(=O)CC[C@]43C)[C@]1(C(=O)OC)C(=O)[C@@](C)(O)C2=O"
Result: < 50%

Ask: // fetch inhibition at 80 µM given entry "C[C@H]1O[C@@H]2OC(=O)[C@]3(C)C[C@@H]4[C@@]5(C)C(=C1O[C@H]5C=C1C(=CC(=O)OC1(C)C)[C@@]41CO1)[C@H]23"
Result: < 50%

Ask: // fetch inhibition at 80 µM given entry "COC(=O)[C@]1(C)O[C@H]2OC(=O)[C@@H]3[C@H]2[C@@](C)(C[C@H]2C(C)=C4CC(=O)OC(C)(C)C4=CC[C@]32C)C1=O"
Result: < 50%

Ask: // fetch inhibition at 80 µM given entry "COC(=O)[C@]12C(=O)[C@H](C)O[C@@H]3OC(=O)[C@](C)(C[C@H]4[C@]5(CO5)C5=CC(=O)OC(C)(C)C5=CC[C@@]41C)[C@@H]32"
Result: < 50%

Where do the numbers come from? From ChEMBL document CHEMBL4130459.
